Target: T1, biotin-labeled CD47 extracellular domain protein (CD47-ECD) (UniProt Q08722 19-139, limits assumed, biotin-labeled (sites not given))
T1 construct: extracellular domain; also called CD47 protein
T1 sequence (Q08722 19-139 limits assumed): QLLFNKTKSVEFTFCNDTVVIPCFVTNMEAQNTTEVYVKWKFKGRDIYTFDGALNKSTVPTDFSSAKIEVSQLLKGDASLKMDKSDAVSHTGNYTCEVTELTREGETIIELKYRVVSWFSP
Assay: blocking ELISA, biotin-CD47-ECD on coated SIRPα-hFc; Ab 40 nM
quantity measured: OD450 nm of CD47 bound to SIRPα
Numbers only.

{"binder": "4D10B11 (antibody, V domains shown, Murine hybridoma antibody purified on protein G) VH: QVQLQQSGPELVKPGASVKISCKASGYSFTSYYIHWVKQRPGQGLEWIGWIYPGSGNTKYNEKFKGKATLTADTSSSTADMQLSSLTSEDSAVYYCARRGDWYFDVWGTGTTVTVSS VL: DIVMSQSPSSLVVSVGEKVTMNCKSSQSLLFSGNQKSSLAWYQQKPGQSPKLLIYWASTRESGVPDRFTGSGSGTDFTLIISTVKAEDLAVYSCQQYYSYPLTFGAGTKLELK", "observed result": 0.06}
{"binder": "95E2D10 (antibody, V domains shown, Murine hybridoma antibody purified on protein G) VH: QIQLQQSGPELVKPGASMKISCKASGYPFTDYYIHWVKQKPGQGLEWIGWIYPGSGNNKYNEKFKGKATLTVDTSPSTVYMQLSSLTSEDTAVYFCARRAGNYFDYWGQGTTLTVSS VL: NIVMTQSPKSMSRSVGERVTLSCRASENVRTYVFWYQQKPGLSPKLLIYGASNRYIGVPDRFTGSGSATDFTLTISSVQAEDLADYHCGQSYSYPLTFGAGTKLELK", "observed result": 0.06}

Problem: Reported OD450 nm of CD47 bound to SIRPα, binder 20H4G5 (antibody, V domains shown, Murine hybridoma antibody purified on protein G) VH: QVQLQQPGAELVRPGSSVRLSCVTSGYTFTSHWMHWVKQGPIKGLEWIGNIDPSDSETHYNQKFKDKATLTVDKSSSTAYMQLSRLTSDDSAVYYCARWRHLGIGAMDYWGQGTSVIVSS VL: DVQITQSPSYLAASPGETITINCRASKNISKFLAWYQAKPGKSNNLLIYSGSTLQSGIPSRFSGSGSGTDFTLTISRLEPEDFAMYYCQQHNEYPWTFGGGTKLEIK : ____
Solution: 0.07
